Test: Solubility in pure water at room temperature by HPLC method
Type: physicochemical
MEASUREMENT LABEL: solubility (mM)

> print(dat)
                                test.smiles  unit.name  test.result
1  Cl.Cl.O=[N+]([O-])c1cc(CSc2nnc(CCCCCN3CCN(Cc4ccccc4)CC3)o2)cc([N+](=O)[O-])c1         mM         17.1

====

Tested on: Mycobacterium kansasii
Assay: Antimycobacterial activity against Mycobacterium kansasii 6509/96 incubated for 14 days by micromethod
Format: functional
Conditions: Mycobacterium kansasii, 6509/96, 336 h

COMPOUND	ASSAYED TARGET	COMPARATOR	MIC99 [µM]
O=[N+]([O-])c1cc(CSc2nnc(CCCN3CCOCC3)o2)cc([N+](=O)[O-])c1	Mycobacterium kansasii	=	8
O=[N+]([O-])c1cc(-c2nnc(SCCCN3CCOCC3)o2)cc([N+](=O)[O-])c1	Mycobacterium kansasii	=	16
O=[N+]([O-])c1cc(CSc2nnc(CCCCCN3CCCCC3)o2)cc([N+](=O)[O-])c1	Mycobacterium kansasii	=	32
CN1CCN(CCCSc2nnc(-c3cc([N+](=O)[O-])cc([N+](=O)[O-])c3)o2)CC1	Mycobacterium kansasii	>	32
O=[N+]([O-])c1cc(CSc2nnc(CCCCCN3CCN(Cc4ccccc4)CC3)o2)cc([N+](=O)[O-])c1	Mycobacterium kansasii	=	2
NNC(=O)c1ccncc1 [ISONIAZID]	Mycobacterium kansasii	=	4
O=[N+]([O-])c1cc(CSc2nnc(CCCN3CCCCC3)o2)cc([N+](=O)[O-])c1	Mycobacterium kansasii	=	16
O=[N+]([O-])c1cc(CSc2nnc(CCCCCN3CCOCC3)o2)cc([N+](=O)[O-])c1	Mycobacterium kansasii	=	8
CO[C@H]1/C=C/O[C@@]2(C)Oc3c(C)c(O)c4c(O)c(c(/C=N/N5CCN(C)CC5)c(O)c4c3C2=O)NC(=O)/C(C)=C\C=C\[C@H](C)[C@H](O)[C@@H](C)[C@@H](O)[C@@H](C)[C@H](OC(C)=O)[C@@H]1C [RIFAMPIN]	Mycobacterium kansasii	=	0.125
O=[N+]([O-])c1cc(-c2nnn(CCCN3CCN(Cc4ccccc4)CC3)n2)cc([N+](=O)[O-])c1	Mycobacterium kansasii	=	1
CN1CCN(CCCCCc2nnc(SCc3cc([N+](=O)[O-])cc([N+](=O)[O-])c3)o2)CC1	Mycobacterium kansasii	>	32
O=[N+]([O-])c1cc(-c2nnn(CCCN3CCCCC3)n2)cc([N+](=O)[O-])c1	Mycobacterium kansasii	=	16
O=[N+]([O-])c1cc(CSc2nnc(CCCN3CCN(Cc4ccccc4)CC3)o2)cc([N+](=O)[O-])c1	Mycobacterium kansasii	=	2
O=[N+]([O-])c1cc(-c2nnn(CCCN3CCOCC3)n2)cc([N+](=O)[O-])c1	Mycobacterium kansasii	=	16
O=[N+]([O-])c1cc(-c2nnc(SCCCN3CCCCC3)o2)cc([N+](=O)[O-])c1	Mycobacterium kansasii	=	16
CN1CCN(CCCn2nnc(-c3cc([N+](=O)[O-])cc([N+](=O)[O-])c3)n2)CC1	Mycobacterium kansasii	>	32
O=[N+]([O-])c1cc(-c2nnc(SCCCN3CCN(Cc4ccccc4)CC3)o2)cc([N+](=O)[O-])c1	Mycobacterium kansasii	=	0.5
CN1CCN(CCCc2nnc(SCc3cc([N+](=O)[O-])cc([N+](=O)[O-])c3)o2)CC1	Mycobacterium kansasii	>	32

Origin of the recorded values: ChEMBL document CHEMBL4043195
